B1: Chromodomain-helicase-DNA-binding protein 4, residues 623 to 675; numbered along this chain, Q14839 (parent)
chain: MIHRILNHSVDKKGHVHYLIKWRDLPYDQASWESEDVEIQDYDLFKQSYWNHR

# Variants of: B1
# protocol: abundance fitness (aPCA) (normalised: wild type 0, dead -1); higher = more abundant; growth selection in yeast, the domain comes from the species named
# condition-label: Homo sapiens
Hi there, I'd appreciate the recorded abundance fitness for every entry that follows.
Lab note: write the figure by itself, no unit.

Inquiry: What value of measured abundance fitness is listed for `H17T` ?
Reply text: 0.115

Inquiry: What value of measured abundance fitness is listed for `Y18L` ?
Reply text: -0.86

Inquiry: What value of measured abundance fitness is listed for `Y18K` ?
Reply text: -0.838

Inquiry: What value of measured abundance fitness is listed for `H15L` ?
Reply text: -0.171

Inquiry: What value of measured abundance fitness is listed for `L25A` ?
Reply text: -0.256

Inquiry: What value of measured abundance fitness is listed for `A30G` ?
Reply text: -0.977

Inquiry: What value of measured abundance fitness is listed for `L25M` ?
Reply text: 0.096

Inquiry: What value of measured abundance fitness is listed for `W22S` ?
Reply text: -0.806

Inquiry: What value of measured abundance fitness is listed for `H15K` ?
Reply text: 0.205

Inquiry: What value of measured abundance fitness is listed for `Y18Q` ?
Reply text: -0.962

Inquiry: What value of measured abundance fitness is listed for `L19I` ?
Reply text: -0.772

Inquiry: What value of measured abundance fitness is listed for `Y18P` ?
Reply text: -0.833

Inquiry: What value of measured abundance fitness is listed for `P26I` ?
Reply text: -0.907

Inquiry: What value of measured abundance fitness is listed for `W22H` ?
Reply text: -0.733

Inquiry: What value of measured abundance fitness is listed for `R23E` ?
Reply text: -0.279

Inquiry: What value of measured abundance fitness is listed for `D28Y` ?
Reply text: -0.504

Inquiry: What value of measured abundance fitness is listed for `L19G` ?
Reply text: -0.604

Inquiry: What value of measured abundance fitness is listed for `E33G` ?
Reply text: -0.781

Inquiry: What value of measured abundance fitness is listed for `Y18A` ?
Reply text: -0.688

Inquiry: What value of measured abundance fitness is listed for `V16K` ?
Reply text: -0.088

Inquiry: What value of measured abundance fitness is listed for `L25P` ?
Reply text: -0.398

Inquiry: What value of measured abundance fitness is listed for `Y18H` ?
Reply text: -0.736

Inquiry: What value of measured abundance fitness is listed for `Y27V` ?
Reply text: 0.097

Inquiry: What value of measured abundance fitness is listed for `L19P` ?
Reply text: -0.74

Inquiry: What value of measured abundance fitness is listed for `K21V` ?
Reply text: -0.463

Inquiry: What value of measured abundance fitness is listed for `K21D` ?
Reply text: -0.818

Inquiry: What value of measured abundance fitness is listed for `Y18V` ?
Reply text: -0.753

Inquiry: What value of measured abundance fitness is listed for `H17I` ?
Reply text: -0.068

Inquiry: What value of measured abundance fitness is listed for `V16Y` ?
Reply text: -0.016

Inquiry: What value of measured abundance fitness is listed for `D24L` ?
Reply text: -0.535

Inquiry: What value of measured abundance fitness is listed for `K21W` ?
Reply text: -0.201

Inquiry: What value of measured abundance fitness is listed for `Y27L` ?
Reply text: 0.156

Inquiry: What value of measured abundance fitness is listed for `K13D` ?
Reply text: 0.098

Inquiry: What value of measured abundance fitness is listed for `P26M` ?
Reply text: -0.761

Inquiry: What value of measured abundance fitness is listed for `H15I` ?
Reply text: 0.029

Inquiry: What value of measured abundance fitness is listed for `S31E` ?
Reply text: -0.784

Inquiry: What value of measured abundance fitness is listed for `W32A` ?
Reply text: -0.997

Inquiry: What value of measured abundance fitness is listed for `W22F` ?
Reply text: -0.825

Inquiry: What value of measured abundance fitness is listed for `Q29I` ?
Reply text: -1.17

Inquiry: What value of measured abundance fitness is listed for `L25F` ?
Reply text: -0.254

Inquiry: What value of measured abundance fitness is listed for `H17N` ?
Reply text: -0.052

Inquiry: What value of measured abundance fitness is listed for `H17D` ?
Reply text: -0.43

Inquiry: What value of measured abundance fitness is listed for `W22N` ?
Reply text: -1.13

Inquiry: What value of measured abundance fitness is listed for `A30R` ?
Reply text: -0.401

Inquiry: What value of measured abundance fitness is listed for `R23D` ?
Reply text: -0.591

Inquiry: What value of measured abundance fitness is listed for `L19A` ?
Reply text: -0.892
